- system: wild type PKR (Homo sapiens, UniProt P30613)
- Sequence (P30613 whole entry): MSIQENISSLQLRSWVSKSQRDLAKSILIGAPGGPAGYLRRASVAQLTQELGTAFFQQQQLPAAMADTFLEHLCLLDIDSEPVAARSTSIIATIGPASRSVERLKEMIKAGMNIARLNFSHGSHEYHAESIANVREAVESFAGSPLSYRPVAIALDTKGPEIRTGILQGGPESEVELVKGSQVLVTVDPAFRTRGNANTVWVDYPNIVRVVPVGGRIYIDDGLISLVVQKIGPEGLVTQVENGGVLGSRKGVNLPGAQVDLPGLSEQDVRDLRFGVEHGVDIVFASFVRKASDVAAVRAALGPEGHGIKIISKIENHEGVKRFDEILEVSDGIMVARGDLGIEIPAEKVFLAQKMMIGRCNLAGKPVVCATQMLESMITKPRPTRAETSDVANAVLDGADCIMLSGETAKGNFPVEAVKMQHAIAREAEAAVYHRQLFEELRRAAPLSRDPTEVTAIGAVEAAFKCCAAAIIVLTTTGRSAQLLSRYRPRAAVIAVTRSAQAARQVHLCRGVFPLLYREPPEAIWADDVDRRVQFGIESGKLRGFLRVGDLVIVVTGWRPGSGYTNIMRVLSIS
- method description: PKR (wild type) enzyme AC50 assay, LDH/NADH-coupled, absorbance at 340 nm
- Format: biochemical
- protocol conditions: Table 2; enzyme assay; read-out: PKR WT AC50
parameter: AC50

Q) AC50 for Cn1c2nc(Nc3ccccc3)sc2c2cnn(Cc3cccc4[nH]ncc34)c(=O)c21 [Compound 135] ?
A) > 800 nM

Q) Consider the compound COc1cccc(Cn2ncc3c4sc(C(C)O)nc4n(C)c3c2=O)c1 (centres unmarked) [Compound 52] and give its measured AC50.
A) < 300 nM

Q) Given the compound COC(=O)c1nc2c(s1)c1cnn(Cc3cccc(OC)c3)c(=O)c1n2C [Compound 43] , what is its reported AC50?
A) > 800 nM

Q) I would be grateful if you could share the reported AC50 for CC(=O)NC(c1cc[nH]n1)c1nc2c(s1)c1cnn(Cc3cccc4[nH]ncc34)c(=O)c1n2C (centres unmarked) [Compound 178] .
A) > 800 nM

Q) Which measured AC50 value corresponds to COc1cccc(Cn2ncc3c4scnc4n(C)c3c2=O)c1 [Compound 19] ?
A) 301 to 800 nM

Q) For the compound shown here, Cc1nc2c(s1)c1cnn(Cc3cccc(F)n3)c(=O)c1n2C [Compound 28] , give the reported AC50.
A) > 800 nM

Q) State the recorded AC50 for this entry: Cn1c2nc(Cc3cccc(C(N)=O)c3)sc2c2cnn(Cc3cccc4[nH]ncc34)c(=O)c21 [Compound 100]
A) < 300 nM

Q) // lookup AC50 for CC(O)c1nc2c(s1)c1cnn(Cc3cccc4[nH]ncc34)c(=O)c1n2C (centres unmarked) [Compound 106]
A) < 300 nM

Q) Query (compound): Cc1nc2c(s1)c1cnn(Cc3cccc(CN)c3)c(=O)c1n2C [Compound 58] ; field requested: AC50
A) < 300 nM

Q) Recorded AC50 for CSc1nc2c(s1)c1cnn(Cc3cccc(S(N)(=O)=O)c3)c(=O)c1n2C [Compound 110] , please?
A) > 800 nM

Q) If you can, please state the reported AC50 value of Cn1c2nc(Cc3ccncc3)sc2c2cnn(Cc3cccc4[nH]ncc34)c(=O)c21 [Compound 161] .
A) > 800 nM

Q) Consider the compound Cn1c2nc(Cc3ccc(C#N)cc3)sc2c2cnn(Cc3cccc4[nH]ncc34)c(=O)c21 [Compound 93] and give its measured AC50.
A) > 800 nM

Q) Quick check: AC50 of CNc1ccc(Cc2nc3c(s2)c2cnn(Cc4cccc5[nH]ncc45)c(=O)c2n3C)cc1 [Compound 109] ?
A) < 300 nM

Q) Consider the compound shown here: Cc1nc2c(s1)c1cnn(Cc3cccc([N+](=O)[O-])c3)c(=O)c1n2C [Compound 47] What is its recorded AC50?
A) > 800 nM

Q) For the compound shown here, COc1ccccc1Cn1ncc2c3sc(C)nc3n(C)c2c1=O [Compound 8] , give the reported AC50.
A) > 800 nM

Q) Please look up its AC50: Cn1c2nc(Cc3ncsc3CO)sc2c2cnn(Cc3cccc4[nH]ncc34)c(=O)c21 [Compound 167]
A) < 300 nM

Q) Tell me the measured AC50 of COc1cccc(Cn2ncc3c4sc(CC5CCCCC5)nc4n(C)c3c2=O)c1 [Compound 50] , please.
A) > 800 nM

Q) May I ask what AC50 has been recorded for COc1cccc(Cn2ncc3c4sc(S(C)(=O)=O)nc4n(C)c3c2=O)c1 [Compound 25] ?
A) < 300 nM

Q) Need AC50, item Cc1nc2c(s1)c1cnn(Cc3cccc4[nH]ncc34)c(=O)c1n2C [Compound 26]
A) < 300 nM

Q) What AC50 value was documented for this compound, CSc1nc2c(s1)c1cnn(Cc3ccnc(=O)[nH]3)c(=O)c1n2C [Compound 96] ?
A) > 800 nM

Q) What measured AC50 goes with COc1cccc(Cn2ncc3c4sc(Cc5cc[nH]n5)nc4n(C)c3c2=O)c1 [Compound 144] ?
A) < 300 nM

Q) Which AC50 is listed for Cn1c2nc([S+](C)[O-])sc2c2cnn(Cc3ccnc(N)n3)c(=O)c21 (centres unmarked) [Compound 97] ?
A) > 800 nM

Q) Look at this compound and give its reported AC50. COc1cccc(Cn2ncc3c4sc(C(=O)c5ccccc5)nc4n(C)c3c2=O)c1 [Compound 4]
A) > 800 nM

Q) Query: AC50; subject: CNc1cccc(Cc2nc3c(s2)c2cnn(Cc4cccc5[nH]ncc45)c(=O)c2n3C)c1 [Compound 103]
A) < 300 nM

Q) If you can, please state the reported AC50 value of Cn1c2nc([S+](C)[O-])sc2c2cnn(Cc3cnc(N)s3)c(=O)c21 (centres unmarked) [Compound 101] .
A) > 800 nM

Q) Requested field: AC50. Item: CCOC(=O)c1scnc1Cc1nc2c(s1)c1cnn(Cc3cccc4[nH]ncc34)c(=O)c1n2C [Compound 165]
A) 301 to 800 nM
